# Experiment: cytosolic pH regulators acting via V-ATPase – S. cerevisiae, pHLuorin, HTS validation (AID 504600);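 also: plate controls were DMSO for no effect and reference compound for full effect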
# Condition details: V-ATPase proton transport, at 10 µM
The source made the active and inactive calls. Rule as the data show it: active = response above about 15%; inactive = the rest.
Possible outcomes: T (active), F (inactive)

Compound	Answer label
CN1CCN2c3ccccc3Cc3ccccc3C2C1 (centres undefined)	F
CC(=O)OC(C)C[N+](C)(C)C (centres undefined)	F
CS(=O)(=O)NCc1ccc(C(=O)NCc2ccccc2)cc1	F
COc1ccc2[nH]c3c(=O)n(/N=C/[C@H]4C(C)C=C(C)CC4C)c(=O)[nH]c3c2c1 (some centres undefined)	F
O=C(NCc1ccc(N2CCCC2=O)cc1)c1ccc(F)cc1	F
NCCc1ccc(O)c(O)c1	F
O=C(CCCN1C(=O)/C(=C\c2cccs2)SC1=S)Nc1ccccn1	F
CC(C)COC(=O)C1C(=O)CC(C)(O)C(C(=O)OCC(C)C)C1c1cccnc1 (centres undefined)	F
C#C[C@]1(O)CC[C@H]2[C@@H]3CCc4cc(OC)ccc4[C@H]3CC[C@@]21C	F
CCC(C)NCCOc1ccc(C(C)(C)c2ccccc2)cc1 (centres undefined)	F
COc1cccc(N2C(=O)CC(c3c[nH]c4ccccc34)C2=O)c1 (centres undefined)	F
CC(=O)N/C(=C/c1ccc2c(c1)OCO2)C(=O)NCCO	F
COc1cc2c(cc1OC)-c1nnc(C)n1C(C)(C)C2	F
Nc1[nH]c(=O)ncc1F	F
C=CCOC(=O)C1=C(C)NC(=O)NC1/C=C/c1ccccc1OC (centres undefined)	F
CCN(CC)c1ccc([C@H]2[C@@H]3CCCC[C@]3(O)CCN2CC(=O)NCc2ccco2)cc1	T
CCN(CC)c1ccc(C2=NNC(=O)CC2C)cc1[N+](=O)[O-] (centres undefined)	F
O=C(Cc1ccccc1)NNC(=O)Cc1ccccc1	F
Nc1ccc2nc(Cc3ccccc3)[nH]c2c1	F
COc1ccccc1Oc1c(C)oc2c(CN3CCN(CCO)CC3)c(O)ccc2c1=O	F
O=C(OCC1CCCN2CCCCC12)c1ccc2c(c1)OCO2 (centres undefined)	F
COc1cc(CNCCc2ccccc2F)ccc1OCC(=O)N1CCCCC1	F
COc1cccc(CN2C(=O)N(C(C)C)C(N(O)C(=O)NC(C)C)C2(C)C)c1OC (centres undefined)	F
Cc1ccc(S(=O)(=O)NC(=O)NN2CCCCCC2)cc1	F

----------
# Experiment: rapamycin-like changes in RPL19A-GFP expression – cell-based, S. cerevisiae, multiplex flow cytometry, primary screen (AID 1862);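 also: lower values mimic rapamycin by blocking the RPL19A rise seen in DMSO cells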
# Condition details: S. cerevisiae RPL19A-GFP strain, flow cytometry fluorescence, 3 h; at 10 µM; hits give low values
Results filed as inconclusive are left out. Peptide text beside a SMILES is read from it.

Compound	percent of DMSO control GFP / %
O=C(/C=C/c1ccc2c(c1)OCCCO2)c1ccc2ccccc2c1O	97.3
Cc1cccc(NC(=O)c2cc3ccccc3o2)c1	94.6
CCC(=O)Oc1ccc(C(=O)Nc2ccc([N+](=O)[O-])cc2)cc1	87.8
CC(=O)NC(CC(C)C)C(=O)NC(Cc1ccccc1)C(N)=O (stereo not drawn) (Ac-Leu-Phe-NH2; configuration not given here)	101
CC(C)(C)C(=O)NCCCNc1ccc([N+](=O)[O-])cc1	103
CN(C)[C@@H]1C(=O)C(C(=O)NCN2CCCC2)=C(O)[C@@]2(O)C(=O)C3=C(O)c4c(O)cccc4[C@@](C)(O)C3CC12 (stereo not given in full)	103
C[C@]12CC[C@@H]3c4ccc(O)cc4CC[C@H]3[C@@H]1C[C@@H](O)[C@@H]2O[C@@H]1O[C@H](C(=O)O)[C@@H](O)[C@H](O)[C@H]1O	90.6
CCn1c(/C=C/c2ccccc2)nc2ccccc2c1=O	98.8
CCSC(SCC)[C@H](O)[C@@H](O)[C@H](O)[C@H](O)CO	95.5
OCCC1CN(Cc2ccccc2-c2ccco2)CCN1C1CCCC1 (stereo not given)	99
OCCN(CCO)c1nc(N2CCCCC2)c2nc(N(CCO)CCO)nc(N3CCCCC3)c2n1	105
CCCCCCCC(=O)OCC(O)CO (stereo not given)	108
CC(=O)NC(Cc1ccccc1)C(=O)OCC(=O)c1ccccc1 (stereo not given)	96
COc1ccc(CCN=CC2=C(O)CC(C)(C)CC2=O)cc1	109
O=C(CN1C(=O)c2ccccc2C1=O)Nc1cccc([N+](=O)[O-])c1	103
CCC(=O)O[C@]1(C(=O)CCl)[C@@H](C)C[C@H]2[C@@H]3CCC4=CC(=O)C=C[C@]4(C)[C@@]3(F)[C@@H](O)C[C@@]21C	99.8
COc1ccc(C(=O)COc2ccc(F)cc2)c(O)c1	106
CN1CCc2c(n(CC(O)CN(CCO)CCO)c3ccccc23)C1=O (stereo not given)	92.6
COc1ccc(OC)c(S(=O)(=O)N2CCCc3ccccc32)c1	101
O=C(NCc1ccc2c(c1)OCO2)c1ccc2c(c1)OCCO2	101
COc1cc(C=NCC2OCCc3ccccc32)cc(OC)c1 (stereo not given)	99
c1ccc(-c2ccccn2)nc1	103
CN1CCN(C2=Nc3ccccc3Oc3ccc(Cl)cc32)CC1	101
O=C(O)CCC(=O)c1ccc(-c2ccccc2)cc1	102
COc1ccc(C(C)=O)c2c1OCCO2	100
CC1(C)Oc2ccc(C#N)cc2[C@@H](N2CCCC2=O)[C@@H]1O	97.9
CC(NCCc1ccc(O)cc1)C(O)c1ccc(O)cc1 (stereo not given)	92.4
Cc1coc2c1c(C)cc1oc(=O)c(Cc3ccccc3)c(C)c12	100
CCOC(=O)c1c(C)oc2c1C(=O)c1ccccc1C2=O	111
CC(=O)Oc1ccc2c(=O)c(Oc3ccccc3[N+](=O)[O-])coc2c1	99.8
O=C(NCCO)c1ccc(Cl)c(Cl)c1	103
O=C1c2ccccc2C2(c3ccccc3)NCCN12 (stereo not given)	101
O=C(COc1ccc2ccc(=O)oc2c1)c1ccccc1	91.1
CC(C)C12CN3CC(C(C)C)(CN(C1)C3c1ccccc1O)C2=O (stereo not given)	94.4
CCc1ccc2oc(=O)cc(CN3CCC(C)CC3)c2c1	95
CC(=O)C1=C(O)C(=O)N(CC(=O)O)C1c1ccccc1Cl (stereo not given)	93.5
CSCC[C@H](NC(=O)Nc1ccc(C)cc1C)C(=O)O	99.3
CCN1C(=O)C(CC(=O)Nc2ccc(F)cc2)N(Cc2ccco2)C1=S (stereo not given)	99
O=c1[nH]c(=O)n(C2CCCO2)cc1F (stereo not given)	93.5
Nc1ccc2cn[nH]c2c1	104
C[C@@H]1C[C@H]2[C@@H]3C[C@H](F)C4=CC(=O)C=C[C@]4(C)[C@@]3(F)[C@@H](O)C[C@]2(C)[C@@]1(O)C(=O)COC(=O)C(C)(C)C	101
COc1ccc(CCNC(=O)c2ccc(Cl)cc2)cc1OC	103
Cc1ccc(C(=O)O)cc1NC(=O)c1cccs1	100
CC(C)C(=O)Nc1c(O)c2ccccc2[nH]c1=O	95.6
Cc1ccc(Cl)c(Nc2ccccc2C(=O)O)c1Cl	98.9

----------
# Tested system: AP-2 complex subunit beta (Homo sapiens) (UniProt P63010)
# Sequence (P63010 whole entry, looked up, one chain of several): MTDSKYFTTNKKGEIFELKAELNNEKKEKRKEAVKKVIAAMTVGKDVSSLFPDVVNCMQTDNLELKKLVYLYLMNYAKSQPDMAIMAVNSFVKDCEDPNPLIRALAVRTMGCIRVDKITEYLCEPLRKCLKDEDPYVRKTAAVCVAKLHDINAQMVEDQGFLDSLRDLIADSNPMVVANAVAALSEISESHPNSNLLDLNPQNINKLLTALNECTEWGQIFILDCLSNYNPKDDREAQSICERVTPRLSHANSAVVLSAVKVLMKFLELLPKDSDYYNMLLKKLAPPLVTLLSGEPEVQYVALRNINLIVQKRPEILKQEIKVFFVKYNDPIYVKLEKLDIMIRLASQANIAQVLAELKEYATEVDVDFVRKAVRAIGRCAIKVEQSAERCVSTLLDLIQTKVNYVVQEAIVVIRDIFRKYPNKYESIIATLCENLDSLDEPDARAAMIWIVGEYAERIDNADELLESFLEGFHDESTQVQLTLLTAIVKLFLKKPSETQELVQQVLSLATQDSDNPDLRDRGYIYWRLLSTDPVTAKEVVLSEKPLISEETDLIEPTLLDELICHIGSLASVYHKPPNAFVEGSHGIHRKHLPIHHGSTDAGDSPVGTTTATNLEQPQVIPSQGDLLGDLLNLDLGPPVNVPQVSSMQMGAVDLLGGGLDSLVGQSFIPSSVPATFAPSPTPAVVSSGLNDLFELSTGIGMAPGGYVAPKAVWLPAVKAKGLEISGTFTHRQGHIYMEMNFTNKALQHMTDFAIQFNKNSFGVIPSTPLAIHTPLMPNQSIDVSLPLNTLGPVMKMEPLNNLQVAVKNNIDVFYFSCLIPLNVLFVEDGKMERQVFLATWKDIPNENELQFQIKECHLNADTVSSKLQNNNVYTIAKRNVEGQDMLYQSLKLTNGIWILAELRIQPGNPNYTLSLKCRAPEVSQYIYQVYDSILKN
# Experiment: beta-arrestin/AP2 interaction blockers – biochemical, validation set, GST-AP2 beads, flow cytometry, pilot screen (AID 504541);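 also: AP2 carries R879A mutation and is captured from E. coli lysate; bead-bound FITC arrestin peptide fluorescence measuring arrestin peptide binding to AP2; 0% = DMSO wells and 100% = excess unlabeled arrestin peptide control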
# Condition details: FITC arrestin peptide, at 10 µM, AP2 beta2 appendage fragment, R879A mutant
Active and inactive are the calls of the source.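 The calls were made as follows: active = inhibition above 54%, about 3 SD of non-fluorescent compounds; inactive = the rest.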
Possible outcomes: active, inactive

Compound	Answer label
COC(=O)c1cc(COc2ccc3ccc(=O)oc3c2)c(C)o1	inactive
CCOC(=O)C(NC(C)=O)C(O)c1ccc([N+](=O)[O-])cc1 (stereo not drawn)	inactive
NS(=O)(=O)c1cc2c(cc1C(F)(F)F)NC(Cc1ccccc1)NS2(=O)=O (stereo not drawn)	inactive
C=CCn1c(N2CCCCCC2)nc2c1c(=O)n(C)c(=O)n2C	inactive
CCCCNc1ccc(C(=O)OCCN(C)C)cc1	inactive
O=C(/C=C/Sc1ccccc1)c1ccccc1	inactive
O=C(CCCN1C(=O)/C(=C\c2cccs2)SC1=S)Nc1ccccn1	inactive
COc1ccc(CCNc2ncnc3c2[nH]c2cc(OC)c(OC)cc23)cc1OC	inactive
CC(C)CCNC(=O)[C@H](CC(C)C)NC(=O)[C@H]1O[C@@H]1C(=O)O	inactive
CCOc1ccc2nc(NC(=O)NC3CCCCC3)sc2c1	inactive
O=C(NC(=S)Nc1ccc(N2CCN(C(=O)c3ccccc3)CC2)cc1)c1cccs1	inactive
NC(=O)c1cccnc1	inactive
Cn1c(Oc2ccc3c(c2)OCO3)nc2c1c(=O)n(Cc1ccccc1)c(=O)n2C	inactive
CC(=O)[C@H]1CC[C@H]2[C@@H]3C[C@H](C)C4=CC(=O)CC[C@]4(C)[C@H]3[C@@H](O)C[C@]12C	inactive
COCCCNc1nc2c([nH]1)c(=O)[nH]c(=O)n2C	inactive
O=C(CN1C(=O)C2CCc3[nH]c4ccccc4c3C2C1=O)N1CCCC1 (stereo not drawn)	inactive
CN1CCCN=C1COC(=O)C(O)(c1ccccc1)C1CCCCC1 (stereo not drawn)	inactive
Cc1ccc(S(=O)(=O)N[C@@H](Cc2ccccc2)C(=O)CCl)cc1	inactive
COc1ccc(S(=O)(=O)NCc2ccco2)c2ccccc12	inactive
CC1(C)CC(=O)C2=C(C1)c1c(ccc3ccccc13)NC2c1ccco1 (stereo not drawn)	inactive
COc1ccc(N2C(=O)[C@@H]3[C@H](C2=O)[C@H]2c4ccccc4C=CN2[C@@H]3C(C)=O)cc1	inactive
NCc1ccccc1COc1ccccc1	active
c1ccc(Nc2cccc3c(Nc4ccccc4)cccc23)cc1	inactive

These measurements were taken from PubChem BioAssay.
